Tested on: HCV genotype 1b (Con1) replicon in HUH-7 cells
test description: HCV replicon luciferase reporter assay, genotype 1b
Format: cell-based
test settings: Hepatitis C virus, Huh-7, 72 h, HCV genotype 1b replicon luciferase, 3 days incubation, read-out: LE_1b (EC50, range)
pEC50: −log10 of the molar value.
measured metric: pEC50

In the examples that follow, each entry is paired with its recorded pEC50.
INSERT INTO results (structure_smiles, measured_metric, measured) VALUES
  ('[2H]C([2H])([2H])C(OC(=O)N[C@@H]1C(=O)N2C[C@H](Oc3nccc4c5c(ccc34)N(C)CCO5)C[C@H]2C(=O)N[C@]2(C(=O)NS(=O)(=O)C3(C)CC3)C[C@H]2/C=C\CC[C@@H](C)C[C@H]1C)(C([2H])([2H])[2H])C(F)(F)F', 'pEC50', '> 8.26'),
  ('[2H]C([2H])([2H])C(OC(=O)N[C@@H]1C(=O)N2C[C@H](Oc3nnc(OC)c4ccccc34)C[C@H]2C(=O)N[C@]2(C(=O)NS(=O)(=O)C3(C)CC3)C[C@H]2/C=C\CC[C@H](C)C[C@H]1CC)(C([2H])([2H])[2H])C(F)(F)F', 'pEC50', '> 8.26'),
  ('[2H]C([2H])([2H])C(OC(=O)N[C@@H]1C(=O)N2C[C@H](Oc3nnc(OC)c4ccccc34)C[C@H]2C(=O)N[C@]2(C(=O)NS(=O)(=O)C3(C)CC3)C[C@H]2/C=C\CC[C@@H](C)C[C@H]1CC)(C([2H])([2H])[2H])C(F)(F)F', 'pEC50', '> 8.26'),
  ('C[C@@H]1CC/C=C\[C@@H]2C[C@@]2(C(=O)NS(=O)(=O)C2(C)CC2)NC(=O)[C@@H]2C[C@@H](Oc3cnc4ccc(F)cc4n3)CN2C(=O)[C@@H](NC(=O)OC(C)(C)C)[C@H](C)C1', 'pEC50', '> 8.26');

Ask: Form: Entry = CC[C@@H]1C[C@H](C)CC/C=C\[C@@H]2C[C@@]2(C(=O)NS(=O)(=O)C2(CF)CC2)NC(=O)[C@@H]2C[C@@H](Oc3nc4c(c5ccccc35)CCCO4)CN2C(=O)[C@H]1NC(=O)OC(C)(C)C(F)F | System = HCV genotype 1b (Con1) replicon in HUH-7 cells | pEC50 = ____
Result: 9.00 to 9.29

Ask: Form: Entry = CC[C@@H]1C[C@H](C)CC/C=C\[C@@H]2C[C@@]2(C(=O)NS(=O)(=O)C2(C)CC2)NC(=O)[C@@H]2C[C@@H](Oc3nnc(OC)c4ccccc34)CN2C(=O)[C@H]1NC(=O)OC(C)(C)C(F)(F)F | System = HCV genotype 1b (Con1) replicon in HUH-7 cells | pEC50 = ____
Result: > 8.26

Ask: Form: Entry = CC[C@@H]1C[C@H](C)CC/C=C\[C@@H]2C[C@@]2(C(=O)NS(=O)(=O)C2(C)CC2)NC(=O)[C@@H]2C[C@@H](Oc3ncc(OC)c4ccc(F)cc34)CN2C(=O)[C@H]1NC(=O)N1CCS(=O)(=O)CC1 | System = HCV genotype 1b (Con1) replicon in HUH-7 cells | pEC50 = ____
Result: 8.30 to 9.00

Ask: Form: Entry = CC[C@@H]1C[C@H](C)CC/C=C\[C@@H]2C[C@@]2(C(=O)NS(=O)(=O)C2(C)CC2)NC(=O)[C@@H]2C[C@@H](Oc3nc(-c4ccc(OC(C)C)cn4)cc4cc(OC)ccc34)CN2C(=O)[C@H]1NC(=O)OC(C)(C)C(C)(F)F | System = HCV genotype 1b (Con1) replicon in HUH-7 cells | pEC50 = ____
Result: 8.30 to 9.00

Ask: Form: Entry = CC[C@@H]1C[C@@H](C)CC/C=C\[C@@H]2C[C@@]2(C(=O)NS(=O)(=O)C2CC2)NC(=O)[C@@H]2C[C@@H](Oc3nccc4c5c(ccc34)OCCO5)CN2C(=O)[C@H]1NC(=O)OC(C)(C)C(F)(F)F | System = HCV genotype 1b (Con1) replicon in HUH-7 cells | pEC50 = ____
Result: > 8.26

Ask: Form: Entry = CCCOc1cnc(O[C@@H]2C[C@H]3C(=O)N[C@]4(C(=O)NS(=O)(=O)C5CC5)C[C@H]4/C=C\CC[C@H](C)C[C@@H](C)[C@H](NC(=O)OCC4(C)CC4)C(=O)N3C2)c2ccccc12 | System = HCV genotype 1b (Con1) replicon in HUH-7 cells | pEC50 = ____
Result: 6.99 to 8.32

Ask: Form: Entry = C[C@@H]1CC/C=C\[C@@H]2C[C@@]2(C(=O)NS(=O)(=O)C2(CF)CC2)NC(=O)[C@@H]2C[C@@H](Oc3nc4c(c5ccccc35)CCCO4)CN2C(=O)[C@@H](NC(=O)OC(C)(C)C)[C@H](C)C1 | System = HCV genotype 1b (Con1) replicon in HUH-7 cells | pEC50 = ____
Result: 9.00 to 9.29

Ask: Form: Entry = CCCOc1ccc2c(O[C@@H]3C[C@H]4C(=O)N[C@]5(C(=O)NS(=O)(=O)C6CC6)C[C@H]5/C=C\CC[C@H](C)C[C@@H](C)[C@H](NC(=O)OC(C)(C)C(F)(F)F)C(=O)N4C3)nccc2c1 | System = HCV genotype 1b (Con1) replicon in HUH-7 cells | pEC50 = ____
Result: > 8.26

Ask: Form: Entry = COc1ccc2c(O[C@@H]3C[C@H]4C(=O)N[C@]5(C(=O)NS(=O)(=O)C6CC6)C[C@H]5/C=C\CC[C@@H](C)C[C@@H](C)[C@H](NC(=O)OC5(C)CC5)C(=O)N4C3)nccc2c1 | System = HCV genotype 1b (Con1) replicon in HUH-7 cells | pEC50 = ____
Result: > 8.26

Ask: Form: Entry = C[C@@H]1CC/C=C\[C@@H]2C[C@@]2(C(=O)NS(=O)(=O)C2CC2)NC(=O)[C@@H]2C[C@@H](Oc3nccc4c5c(ccc34)OCCO5)CN2C(=O)[C@@H](NC(=O)OC(C)(C)C(F)(F)F)[C@H](C)C1 | System = HCV genotype 1b (Con1) replicon in HUH-7 cells | pEC50 = ____
Result: > 8.26

Ask: Form: Entry = CCOc1ccc2nc(O)c(O[C@@H]3C[C@H]4C(=O)N[C@]5(C(=O)NS(=O)(=O)C6(C)CC6)C[C@H]5/C=C\CC[C@@H](C)C[C@@H](CC)[C@H](NC(=O)OC(C)(C)C)C(=O)N4C3)nc2c1 | System = HCV genotype 1b (Con1) replicon in HUH-7 cells | pEC50 = ____
Result: 7.46 to 8.30

Ask: Form: Entry = CC[C@@H]1C[C@H](C)CC/C=C\[C@@H]2C[C@@]2(C(=O)NS(=O)(=O)C2CC2)NC(=O)[C@@H]2C[C@@H](Oc3ncc(C(=O)O)c4cc(OC)ccc34)CN2C(=O)[C@H]1NC(=O)OC(C)(C)C(F)(F)F | System = HCV genotype 1b (Con1) replicon in HUH-7 cells | pEC50 = ____
Result: 6.21 to 7.46
